# Tested system: T1, HLA-A3 (A*0301) (human)
# T1 construct: Acid-stripped B-LCL
# Procedure text: cell competition vs KVFPC(FI)ALINK, stripped EKR B-LCL, FACS
pIC50: −log10 of the molar value.

| Binder | Censoring operator | pIC50 |
| --- | --- | --- |
| RLAYLHARLR (also called start 459) [PRAME peptide RLAYLHARLR] | = | 6.00 |
| SMSVWTSPR (also called PRA16-24; start 16) [PRAME peptide SMSVWTSPR] | > | 6.00 |
| HLIGLSNLTH (also called start 429) [PRAME peptide HLIGLSNLTH] | = | 5.40 |
| CLPLGVLMK (also called start 80) [PRAME peptide CLPLGVLMK] | > | 6.00 |
| CTWKLPTLAK (also called start 242) [PRAME peptide CTWKLPTLAK] | > | 6.00 |

Recorded values, source patent US20160333065A1.
